# System: Quadruplex DNA
# Assay Procedure: Stabilization of human Hybrid Tel23 G4-quadruplex DNA (5'-TAGGGTTAGGGTTAGGGTTAGGG-3') assessed as change in melting temperature at 5 equiv. by CD melting based analysis
# Format: nucleic-acid assay

{"Smiles Record": "COc1cn2c(cc1=O)c(=O)[nH]c1ccc(C(=O)NCCCN(C)C)cc12", "ΔTm, °C": 4.2}
{"Smiles Record": "O=C(NCCN1CCCC1)c1ccc2[nH]c(=O)c3cc(=O)c(O)cn3c2c1", "ΔTm, °C": 2.7}
{"Smiles Record": "CN(C)CCCNC(=O)c1ccc2[nH]c(=O)c3cc(=O)c(O)cn3c2c1", "ΔTm, °C": 3.8}

meta.source: ChEMBL document CHEMBL6096674
